# target under test: USP1 (construct USP1 (I-785, GG670, 671AA)/UAF1 (I-677)-Flag) (Homo sapiens (Human), UniProt O94782, G670A/G671A)
# Sequence (O94782 whole entry G670A/G671A): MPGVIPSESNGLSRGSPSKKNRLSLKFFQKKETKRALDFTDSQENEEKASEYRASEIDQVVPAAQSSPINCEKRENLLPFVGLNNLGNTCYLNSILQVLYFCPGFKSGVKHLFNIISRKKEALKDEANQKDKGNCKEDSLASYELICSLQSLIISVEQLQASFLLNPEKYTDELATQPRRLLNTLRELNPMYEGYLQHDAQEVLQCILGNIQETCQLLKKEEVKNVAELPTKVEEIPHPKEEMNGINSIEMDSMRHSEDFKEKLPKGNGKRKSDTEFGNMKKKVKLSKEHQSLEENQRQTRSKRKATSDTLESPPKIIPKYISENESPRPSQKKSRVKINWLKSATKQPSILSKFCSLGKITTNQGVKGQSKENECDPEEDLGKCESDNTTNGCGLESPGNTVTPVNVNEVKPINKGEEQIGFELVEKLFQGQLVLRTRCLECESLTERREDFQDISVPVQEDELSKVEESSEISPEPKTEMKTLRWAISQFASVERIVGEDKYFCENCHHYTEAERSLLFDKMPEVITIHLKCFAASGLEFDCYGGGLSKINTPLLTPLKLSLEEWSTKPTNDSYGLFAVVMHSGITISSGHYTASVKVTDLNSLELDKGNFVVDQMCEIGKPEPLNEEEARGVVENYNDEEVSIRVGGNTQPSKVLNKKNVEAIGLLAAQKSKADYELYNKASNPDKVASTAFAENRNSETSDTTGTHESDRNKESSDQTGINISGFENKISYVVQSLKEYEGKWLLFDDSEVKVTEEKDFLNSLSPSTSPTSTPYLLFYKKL
# Sequence (Q8TAF3 whole entry partner): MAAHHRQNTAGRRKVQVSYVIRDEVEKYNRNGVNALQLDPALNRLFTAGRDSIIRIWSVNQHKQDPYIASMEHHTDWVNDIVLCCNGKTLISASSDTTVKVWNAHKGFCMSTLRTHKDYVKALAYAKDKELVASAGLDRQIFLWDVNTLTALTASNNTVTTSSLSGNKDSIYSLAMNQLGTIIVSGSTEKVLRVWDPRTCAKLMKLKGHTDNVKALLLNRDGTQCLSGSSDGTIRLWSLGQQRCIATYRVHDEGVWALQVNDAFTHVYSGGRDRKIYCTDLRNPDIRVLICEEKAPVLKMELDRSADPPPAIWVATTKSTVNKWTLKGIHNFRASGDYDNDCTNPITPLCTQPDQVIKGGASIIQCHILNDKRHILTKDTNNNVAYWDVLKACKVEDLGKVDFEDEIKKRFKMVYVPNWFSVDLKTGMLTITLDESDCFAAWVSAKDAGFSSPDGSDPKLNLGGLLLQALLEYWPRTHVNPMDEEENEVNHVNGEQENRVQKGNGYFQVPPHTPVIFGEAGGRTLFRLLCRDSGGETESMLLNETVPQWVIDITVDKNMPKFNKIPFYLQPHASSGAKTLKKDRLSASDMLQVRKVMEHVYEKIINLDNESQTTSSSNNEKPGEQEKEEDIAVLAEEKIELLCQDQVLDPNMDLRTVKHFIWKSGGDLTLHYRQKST
# assay method text: Ubiquitin-Rhodamine 110 assay for USP1 activity
# conditions: USP1/UAF1 25 pM, Ub-Rh110 25 nM, 30 min preincubation
# Protocol: Example 53: Ubitquin-Rhodamine 110 Assay for USP1 Activity […] Nanoliter quantities of either an 8-point or 10-point, 3-fold serial dilution in DMSO was pre-dispensed into assay plates (Perkin Elmer, ProxiPlate-384 F Plus, #6008269) for a final test concentration range of either 25 μM to 11 nM or 25 μM to 1.3 nM, respectively. […] Fluorescence was read on the Envision (Excitation at 485 nm and Emission at 535 nm; Perkin Elmer) or on the PheraSTAR (Excitation at 485 nm and Emission at 535 nm; BMG Labtech). […]
endpoint: IC50

Reported IC50 ( CC(C)c1ccccc1-c1ncc2[nH]c(=O)n(Cc3ccc(-n4cccn4)cc3F)c2n1 ) = 200 to 2000 nM

Reported IC50 ( Cn1cc(C(F)(F)F)nc1-c1ccc(Cn2c(=O)n(C)c3cnc(-c4ccccc4OC(F)(F)F)nc32)cc1 ) = < 50 nM

Reported IC50 ( Cc1cc(C(F)(F)F)nn1-c1ccc(Cn2c(=O)[nH]c3cnc(-c4cccnc4C(C)C)nc32)cc1 ) = < 50 nM

Reported IC50 ( Cc1nc(-c2ccc(Cn3c(=O)n(C)c4cnc(-c5ccccc5C(C)C)nc43)cc2)n(C)n1 ) = < 50 nM

Reported IC50 ( CCCN(C)C(=O)c1ccc(Cn2c(=O)[nH]c3cnc(-c4ccccc4C(C)C)nc32)cc1 ) = < 50 nM

Reported IC50 ( CC(C)c1ccccc1-c1ncc2[nH]c(=O)n(Cc3ccc(-n4ccc(C5CCCNC5)n4)cc3)c2n1 (centres unmarked) ) = 50 to 200 nM

Reported IC50 ( CC(C)c1ccccc1-c1ncc2[nH]c(=O)n([C@H](C)c3ccc(-n4cccn4)cc3)c2n1 (single isomer, unassigned) ) = < 50 nM

Reported IC50 ( CCC(COC)Oc1ncccc1-c1ncc2[nH]c(=O)n(Cc3ccc(-c4nc(C(F)(F)F)cn4C)cc3)c2n1 (centres unmarked) ) = 50 to 200 nM

Reported IC50 ( CC(C)NC(=O)N1CCC(F)(Cn2c(=O)[nH]c3cnc(-c4ccccc4C(C)C)nc32)CC1 ) = > 2000 nM

Reported IC50 ( Cc1nc(-c2ccc(Cn3c(=O)[nH]c4cnc(-c5ccccc5C(C)C)nc43)cc2)n(C)n1 ) = < 50 nM

---
Reported IC50 ( CC(C)c1ccccc1-c1ncc2[nH]c(=O)n(Cc3ccc(-n4ccc(C(F)(F)F)n4)cc3)c2n1 ) = 50 to 200 nM

Reported IC50 ( CC(C)c1ccccc1-c1ncc2c(n1)n(Cc1cccc(OCC3CCOC3)c1)c(=O)n2C (centres unmarked) ) = 200 to 2000 nM

Reported IC50 ( CC(C)c1ncccc1-c1ncc2[nH]c(=O)n(Cc3ccc(-c4nc(C(F)(F)F)cn4C4COC4)cc3)c2n1 ) = 50 to 200 nM

Reported IC50 ( CC(C)c1ccccc1-c1ncc2[nH]c(=O)n(Cc3ccc(-c4cn[nH]n4)cc3)c2n1 ) = 50 to 200 nM

Reported IC50 ( CC(C)c1ccccc1-c1ncc2[nH]c(=O)n(Cc3ccc(C(=O)N4CC[C@H](O)C4)cc3)c2n1 ) = 200 to 2000 nM
